Attribution: PubChem BioAssay AID1159580

Test: chemical genetic growth profiling, strain panel (AID 1159580);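 note: tested at 20 µM; growth read once vehicle control cultures reached saturation at 30 °C; 1 = growth at the plate median or of vehicle wells; lower values mean less growth of the strain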
Details: S. cerevisiae deletion strains, growth OD, locus YPR167C, strain met16, hits give low values
Screen size: about 5,500 compounds; about 2,000 (36%) were called active. Roughly 18% stayed inconclusive and do not appear here. The list shows a part of the results.
measure: normalized growth
Lab note: write the figure by itself, no unit.

Data request: Would you mind telling me what normalized growth value was observed for Nc1nc2ncc(=O)[nH]c2c(=O)[nH]1 ?
Data returned: 1

Data request: C#CCCCCCCCCCCCC(O)CC(O)COC(C)=O (stereo not drawn) ?
Data returned: 0.969

Data request: CCC(C)c1cnc(CC(C)C)c(=O)n1O (stereo not drawn) ?
Data returned: 1.01

Data request: NC(N)=NS(=O)(=O)c1ccc(N)cc1 ?
Data returned: 0.993

Data request: CC(=O)OCC(OC(C)=O)C(OC(C)=O)C(OC(C)=O)C(OC(C)=O)C(COC(C)=O)OC(C)=O (stereo not drawn) ?
Data returned: 0.962

Data request: C=CCSCC1Nc2cc(Cl)c(S(N)(=O)=O)cc2S(=O)(=O)N1 (stereo not drawn) ?
Data returned: 1.03

Data request: CC(=O)OCC(COC(C)=O)OC(C)=O ?
Data returned: 1.01

Data request: CC(=O)OCC[C@H](C)CCC=C(C)C ?
Data returned: 1.02

====

Assay: chemical genetic growth profiling, strain panel (AID 1159580);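 note: tested at 20 µM; growth read once vehicle control cultures reached saturation at 30 °C; 1 = growth at the plate median or of vehicle wells; lower values mean less growth of the strain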
Conditions: S. cerevisiae deletion strains, growth OD, locus YNL207W, strain RIO2, hits give low values
Screen size: about 5,500 compounds; about 2,000 (36%) were called active. Another 18% or so got no clear call; they are omitted. Some of the results follow.
Record form. Attribute: normalized growth. Fill in for each entry.
Lab note: write the figure by itself, no unit.

Data request: Would you mind telling me what normalized growth value was observed for CC1(C)OC(=O)C(=Cc2cccn2-c2ccc(OC(F)(F)F)cc2)C(=O)O1 ?
Data returned: 0.986

Data request: Cc1onc(-c2c(Cl)cccc2Cl)c1C(=O)NC(C)(C)CC(C)(C)C ?
Data returned: 0.991

Data request: Cc1onc(-c2c(F)cccc2Cl)c1C(=O)NNc1cc(Cl)cc(Cl)c1 ?
Data returned: 0.987

Data request: O=C(/C=C/Sc1nc2ccccc2s1)c1ccc(Cl)cc1 ?
Data returned: 0.988

Data request: O=C(Nc1ccc(Cl)cc1)OCCSc1nc2ccccc2s1 ?
Data returned: 0.983

Data request: Cc1onc(-c2c(Cl)cccc2Cl)c1C(=O)NNc1c(Cl)cccc1Cl ?
Data returned: 0.991

Data request: CC(C)(C)c1ccc(C(=O)NNc2c(Cl)cccc2Cl)cc1 ?
Data returned: 0.974

Data request: O=[N+]([O-])c1ccc2oc(C(O)c3ccc(-c4ccccc4)cc3)cc2c1 (stereo not given) ?
Data returned: 0.979

Data request: CCc1ccn2cc(Nc3ccccc3Cl)nc2c1 ?
Data returned: 0.972

Data request: CCCCN(C)C(=O)c1cc([N+](=O)[O-])cc2c1-c1ccc([N+](=O)[O-])cc1C2=C(C#N)C#N ?
Data returned: 0.979

Data request: CC(C)(C)c1ccc(C(=O)Nc2ccc(C(F)(F)F)cc2)s1 ?
Data returned: 0.991

Data request: Cc1ccc(NNC(=O)c2c(C)noc2C)cc1Cl ?
Data returned: 0.992

Data request: Cc1c(C(=O)N(Cc2ccccc2)Cc2cccs2)cnn1-c1ccc(Cl)cc1 ?
Data returned: 0.989

Data request: O=C(Nc1ccc(OC(F)(F)F)cc1)N1CCN(c2nc(-c3ccccc3)ns2)CC1 ?
Data returned: 0.982

Data request: COC(=O)c1sccc1-c1ccc(/C=C/[N+](=O)[O-])o1 ?
Data returned: 0.977
